Test system: DU-145 prostate
METHOD_NOTES: NCI-60 one-dose screen, 48 h
PROTOCOL_CONDITIONS: 10 µM unless noted
Protocol: Cells are grown in 96 well plates and exposed to the test compound for 48 hours. Compounds are tested at a single concentration, which is 10^-5 M for most compounds. The reported endpoint is percent growth (GI% or GIPRCNT), where numbers from 0 - 100% represent growth inhibition, and numbers from -100% - 0 represent cell death. For example, a value of 40 represents 60% growth inhibition. A value of 0 means no net growth occurred over the course of the experiment. […]
This is part of a sample that, as a whole, favours compounds with a hit. Of some 83,000 tested, about 20% had one in any assay. The source made the active and inactive calls. The calls were made as follows: active = growth percent below 10; inactive = the rest.
Respond only with the outcome that fits, drawn from active, inactive

These solved cases illustrate the format of a correct answer.
O[C@@H]1CCO[C@H](c2ccc3ccccc3c2)C1 | inactive
O=C1OC(=O)C2C3CC(c4ccccc43)C12 (stereo unspecified) | inactive
CNC(=O)NN | inactive
O=C(O)c1ccc(-n2cc(/C=N/Nc3ccccc3F)c(-c3ccc(O)cc3)n2)cc1 | inactive
O=C(Cn1c2ccccc2c2ccncc21)N/N=C/c1c[nH]c2ccccc12 | inactive

Problem: Recorded test call requested for CN(C)c1ccc(/C=N/n2c(-c3cc(F)c(Cl)cc3Cl)nn(CN3CCOCC3)c2=S)cc1
Solution: inactive

Problem: For CCc1c2cc(Cl)ccc2n2cc(Cc3ccccc3)[nH]c(=O)c12 , which call appears in the assay record?
Solution: inactive

---

System: U251 CNS
METHOD_NOTES: NCI-60 one-dose screen, 48 h
PROTOCOL_CONDITIONS: 10 µM unless noted
Compounds without any hit were thinned out: in the full panel of roughly 83,000, 20% have a hit. Active and inactive are the calls of the source. Rule for the calls: active = growth percent below 10; inactive = the rest.
Please answer using one outcome listed in active, inactive

Some solved cases for reference:
O=C(NCCNc1nccc(-c2c(-c3cccc(O)c3)nc3sccn23)n1)c1ccc(N2CCOCC2)c(C(F)(F)F)c1 | inactive
O=C(N/N=C/c1ccccc1O)c1ccccc1O | inactive
CC(NCCC(c1ccccc1)c1ccccc1)c1ccccc1 (centres undefined) | inactive

Next:
Problem: Name the outcome recorded for COc1ccc(/C(=C/c2cc(OC)c(OC)c(OC)c2)[N+](=O)[O-])cc1 in the assay.
Solution: active

---

System: A498 renal
METHOD_NOTES: NCI-60 one-dose screen, 48 h (100 = growth as untreated, 0 = no growth, -100 = all killed)
PROTOCOL_CONDITIONS: 10 µM unless noted
The panel holds about 83,000 compounds, 20% with a hit somewhere; the sample as a whole holds those more often.
ENDPOINT_NAME: growth (%)
Give bare numbers, in %.

Solved cases (2 shown):
Cc1c(F)cccc1NC(=O)c1sc2nc3c(cc2c1N)CCCCC3 | 33.7
CNCCCOc1c(Br)cc(CCNC(=O)/C(Cc2ccc(OC)c(Br)c2)=N/O)cc1Br | 39.4

Now consider a different compound.
Problem: Find the measured growth of COC1OCC(OS(=O)(=O)c2ccc(C)cc2)C(OC(=O)c2ccccc2)C1OC(=O)c1ccccc1 (stereo not drawn) and report it.
Solution: 87.4

---

Could you please report measured growth for the items listed next?
System: MOLT-4 leukemia
METHOD_NOTES: NCI-60 one-dose screen, 48 h (100 = growth as untreated, 0 = no growth, -100 = all killed)
PROTOCOL_CONDITIONS: 10 µM unless noted
About 83,000 compounds went through this panel and 20% of them were active in at least one assay; those are over-represented in the sample as a whole. Activity calls are given as the source filed them. How the source made its calls: active means growth percent below 10; inactive means the rest.

Examples from the recorded data:
COc1cc2nc(C(=O)N3CCCCC3)cc(Nc3ccccc3)c2cc1OC | 97.3% (inactive)
COc1cc(/C=C/C(=O)c2c(C)n([O-])c3cc(C)c(C)cc3[n+]2=O)cc(OC)c1OC | 44.3% (inactive)
COc1ccc(/C=N/C2=NNC(C)(c3ccccc3O)N2C(Cc2c[nH]c3ccccc23)C(=O)O)cc1 (centres undefined) | 14.4% (inactive)

The record that follows has no growth shown yet.
Problem: Name the recorded growth of the item O=C(Cn1c2ccccc2c2ccncc21)N/N=C/c1cc(O)c(O)c(O)c1 in your answer.
Solution: 88.4% (inactive)

---

Test system: BT-549 breast
METHOD_NOTES: NCI-60 one-dose screen, 48 h
PROTOCOL_CONDITIONS: 10 µM unless noted
Method: Growth inhibition of the BT-549 human tumor cell line is measured as a screen for anti-cancer activity. Cells are grown in 96 well plates and exposed to the test compound for 48 hours. Compounds are tested at a single concentration, which is 10^-5 M for most compounds. The reported endpoint is percent growth (GI% or GIPRCNT), where numbers from 0 - 100% represent growth inhibition, and numbers from -100% - 0 represent cell death. For example, a value of 40 represents 60% growth inhibition. […]
This is part of a sample that, as a whole, favours compounds with a hit. Of some 83,000 tested, about 20% had one in any assay. Active and inactive are the calls of the source. The calls were made as follows: active = growth percent below 10; inactive = the rest.
Answer with one of the outcomes active, inactive

CC(C)(c1ccc(OCC(O)CNCc2ccco2)cc1)c1ccc(OCC(O)CNCc2ccco2)cc1 (stereo not given) | inactive
O=C(CSc1nnc(-c2cc3c([nH]c4ccccc43)c(-c3cccc(O)c3)n2)n1-c1ccccc1)c1ccccc1 | inactive
C#C[C@H](O)/C=C/CCCCCCC#C[C@H](O)CC[C@@H](O)C#CCCCCCC/C=C/[C@@H](O)C#C | inactive
CCN1CCN(Cc2ccc(NC(=O)Nc3cccc(-n4ccc5c(NC(=O)c6ccccc6)nccc54)c3)cc2C(F)(F)F)CC1 | inactive

Problem: # fetch the recorded call for COc1ccccc1S(=O)(=O)Nc1ccc2c3c(cc(-c4cnn(C)c4)nc13)C(=O)N2C here
Solution: inactive

Problem: Answer briefly: the call reported for COc1ccc(/C=C/C(=O)c2ccc(-n3cc(CN4CCN(c5cc6c(cc5F)c(=O)c(C(=O)O)cn6C5CC5)CC4)nn3)cc2)cc1OC in this assay.
Solution: inactive

Problem: What call does the record list for COc1cc(-c2nc3ccccc3s2)ccc1OCc1nc2n(n1)S(=O)(=O)c1ccccc1N2c1ccccc1 ?
Solution: inactive

Problem: What is the recorded call for this compound in the test? O=C(NCCNc1nccc(-c2c(-c3cccc(O)c3)nc3sccn23)n1)c1cc(N2CCOCC2)cc(C(F)(F)F)c1
Solution: inactive

Problem: What did the test return for COc1cc(/C=C\c2cc(/C=C\c3ccc(O)c(OC)c3)n(C(=O)CNc3ccccc3OC)n2)ccc1O ?
Solution: inactive

---

Test system: KM12 colon
METHOD_NOTES: NCI-60 one-dose screen, 48 h (100 = growth as untreated, 0 = no growth, -100 = all killed)
PROTOCOL_CONDITIONS: 10 µM unless noted
Compounds without any hit were thinned out: in the full panel of roughly 83,000, 20% have a hit.
ENDPOINT_NAME: growth (%)
One number for each entry, in %.

Study these solved cases before continuing.
COc1cc([C@@H]2c3cc4c(cc3C(OC3O[C@@H]5COC(C)O[C@H]5[C@H](O)[C@H]3O)C3COC(=O)[C@@H]32)OCO4)cc(OC)c1O (stereo partly specified) | 42.1
O=C1CN(CCN2CC(=O)NC(=O)C2)CC(=O)N1 | 99.5
COC(=O)/C=C/C(=O)c1cc(C)cc(C)c1O | 99.1

// input: 3 compounds below; output: growth for each
1. COc1ccc(CNc2nc3ccccc3c3c(=O)c4ccccc4sc23)cc1OC
2. CN(CCNCc1ccccn1)CCNCc1ccccn1
3. COC(=O)Nc1nc2ccc(Sc3ccccc3)cc2[nH]1

Solution:
1: 79.8; 2: -0.112; 3: 3.07

---

System: HCT-116 colon
METHOD_NOTES: NCI-60 one-dose screen, 48 h (100 = growth as untreated, 0 = no growth, -100 = all killed)
PROTOCOL_CONDITIONS: 10 µM unless noted
This is part of a sample that, as a whole, favours compounds with a hit. Of some 83,000 tested, about 20% had one in any assay.
Note to self: use Yes only for growth readings below 20%; a reading exactly at 20% still gets No.

Previously resolved entries follow.
CC(=O)Cc1cccnc1 | No
O=C(Nc1ccc(-n2ccc3c(NC(=O)c4ccccc4)ncnc32)cc1)c1ccc(Cl)c(C(F)(F)F)c1 | Yes
O=C(Nc1ccc(-n2ccc3c(NC(=O)c4ccccc4)nccc32)cc1)c1cccc(C(F)(F)F)c1 | Yes
COc1cc(NC(C)CCCN2C(=O)c3ccccc3C2=O)c2ncccc2c1OC (configuration not stated) | No
C=C1C(=O)O[C@H]2[C@H]1CC/C(CNC(=O)/C1=C/CC[C@@]3(C)O[C@H]3[C@H]3OC(=O)C(=C)[C@@H]3CC1)=C\CC[C@@]1(C)O[C@@H]21 | No

Problem: I'd appreciate it if you could check whether Nc1nccc2c1ccn2-c1cccc(NC(=O)c2ccc(N3CCOCC3)c(C(F)(F)F)c2)c1 has growth smaller than 20%.
Solution: Yes

Problem: Is 20% strictly greater than the compound's reported growth? compound: FC(F)(F)c1cccc([Si](F)(c2cccc(C(F)(F)F)c2)c2cccc(C(F)(F)F)c2)c1
Solution: Yes
